tested on: 454973-116-R2-J3-PDC spheroids, percent test/control viability; experiment: Anticancer human tumor 454973-116-R2-J3-PDC patient-derived pancreatic carcinoma cell line growth inhibition [CLK]; details: second compound 10 µM; first compound 0.0316 µM; hits give low values; spheroids with HUVEC and MSC;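 also: spheroids exposed to compounds for 7 days before readout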
One threshold, 1%, splits the recorded viability, T/C values: lower ones are satisfied, equal or higher ones are not satisfied.

Solved entries:
C=C(F)C(=O)N1CCN(c2nc(OCC3CCCN3C)nc3c2CCN(c2cccc4cccc(Cl)c24)C3)CC1CC#N (configuration not stated) + CN1CCN(c2cc(C(=O)Nc3cc4cc(-c5cnn(C)c5)ccc4cn3)ccn2)CC1 :: not satisfied
Nc1ccccc1NC(=O)c1ccc(CNC(=O)OCc2cccnc2)cc1 + CN1CCN(c2cc(C(=O)Nc3cc4cc(-c5cnn(C)c5)ccc4cn3)ccn2)CC1 :: satisfied
COc1cccc2c1C(=O)c1c(O)c3c(c(O)c1C2=O)CC(O)(C(=O)CO)CC3OC1CC(N)C(O)C(C)O1 (configuration not stated) + CNC(=O)c1ccc(Nc2nc(OC3CCCC3)c3c(-c4ccc5nc(C)oc5c4)c[nH]c3n2)c(OC)c1 :: not satisfied
O=C(c1cc(Cc2n[nH]c(=O)c3ccccc23)ccc1F)N1CCN(C(=O)C2CC2)CC1 + CN1CCN(c2cc(C(=O)Nc3cc4cc(-c5cnn(C)c5)ccc4cn3)ccn2)CC1 :: not satisfied
CCc1c2c(nc3ccc(O)cc13)-c1cc3c(c(=O)n1C2)COC(=O)[C@]3(O)CC + CN1CCN(c2cc(C(=O)Nc3cc4cc(-c5cnn(C)c5)ccc4cn3)ccn2)CC1 :: satisfied

Req: Given COc1c(OCCCN2CCOCC2)ccc2c3n(c(=NC(=O)c4cnc(N)nc4)nc12)CCN3 + CNC(=O)c1ccc(Nc2nc(OC3CCCC3)c3c(-c4ccc5nc(C)oc5c4)c[nH]c3n2)c(OC)c1 , is recorded viability, T/C strictly lower than 1%?
Resp: not satisfied

Req: Given COc1ccc([C@@H](O)c2cc(-c3ncnc4cc(N5CCOCC5)ccc34)c(F)cc2Cl)nn1 + CN1CCN(c2cc(C(=O)Nc3cc4cc(-c5cnn(C)c5)ccc4cn3)ccn2)CC1 , is recorded viability, T/C strictly lower than 1%?
Resp: not satisfied
